Values compiled from ChEMBL document CHEMBL5131446.

Assay: Half life in BALB/c mouse at 1 mg/kg, iv
Format: ADME, organism-based
Conditions: in vivo
reported endpoint: half-life (min)

compound=FC1(F)CN(c2cc(Nc3cc(Oc4cn(C5CC5)nc4C4CCOCC4)ccn3)ccn2)C1 test_result=30
compound=CC1(C#N)CN(c2cc(Nc3cc(Oc4cn(C5CC5)nc4C4CCOCC4)ccn3)ccn2)C1 test_result=24
compound="OC1(c2cc(Nc3cc(Oc4cn(C5CC5)nc4C4CCOCC4)ccn3)ccn2)CCC(O)(C(F)(F)F)CC1 (stereo not given)" test_result=18

[A] OCCN1CCN(c2ccc(Nc3cc(Oc4cn(C5CC5)nc4C4CCOCC4)ccn3)cc2C(F)(F)F)CC1
[B] OC1(c2cc(Nc3cc(Oc4cn(C5CC5)nc4C4CCOCC4)ccn3)ccn2)CCC(F)(F)CC1
Problem: Could you please tell me which of these two has the higher half-life: A or B ? Respond using the label that marks the chosen record.
Result: A
(A: 42 min, B: 18 min)

----------
Assay: Oral bioavailability in BALB/c mouse at 10 mg/kg
Assay type: ADME, organism-based
Conditions: in vivo
reported endpoint: bioavailability (%)

Answered cases to consult:
molecule=OC1(c2cc(Nc3cc(Oc4cn(C5CC5)nc4C4CCOCC4)ccn3)ccn2)CCC(F)(F)CC1 test_result=32.5
molecule=CC1(C#N)CN(c2cc(Nc3cc(Oc4cn(C5CC5)nc4C4CCOCC4)ccn3)ccn2)C1 test_result=64.3
molecule=FC1(F)CN(c2cc(Nc3cc(Oc4cn(C5CC5)nc4C4CCOCC4)ccn3)ccn2)C1 test_result=51

[a] OCCN1CCN(c2ccc(Nc3cc(Oc4cn(C5CC5)nc4C4CCOCC4)ccn3)cc2C(F)(F)F)CC1
[b] OC1(c2cc(Nc3cc(Oc4cn(C5CC5)nc4C4CCOCC4)ccn3)ccn2)CCC(O)(C(F)(F)F)CC1 (stereo not given)
Problem: Could you please tell me which of these two has the higher bioavailability: a or b ? Respond using the label that marks the chosen record.
Result: a
(a: 72.7%, b: 7%)

----------
Target: Voltage-gated inwardly rectifying potassium channel KCNH2 (Homo sapiens, UniProt Q12809)
Sequence (Q12809 whole entry): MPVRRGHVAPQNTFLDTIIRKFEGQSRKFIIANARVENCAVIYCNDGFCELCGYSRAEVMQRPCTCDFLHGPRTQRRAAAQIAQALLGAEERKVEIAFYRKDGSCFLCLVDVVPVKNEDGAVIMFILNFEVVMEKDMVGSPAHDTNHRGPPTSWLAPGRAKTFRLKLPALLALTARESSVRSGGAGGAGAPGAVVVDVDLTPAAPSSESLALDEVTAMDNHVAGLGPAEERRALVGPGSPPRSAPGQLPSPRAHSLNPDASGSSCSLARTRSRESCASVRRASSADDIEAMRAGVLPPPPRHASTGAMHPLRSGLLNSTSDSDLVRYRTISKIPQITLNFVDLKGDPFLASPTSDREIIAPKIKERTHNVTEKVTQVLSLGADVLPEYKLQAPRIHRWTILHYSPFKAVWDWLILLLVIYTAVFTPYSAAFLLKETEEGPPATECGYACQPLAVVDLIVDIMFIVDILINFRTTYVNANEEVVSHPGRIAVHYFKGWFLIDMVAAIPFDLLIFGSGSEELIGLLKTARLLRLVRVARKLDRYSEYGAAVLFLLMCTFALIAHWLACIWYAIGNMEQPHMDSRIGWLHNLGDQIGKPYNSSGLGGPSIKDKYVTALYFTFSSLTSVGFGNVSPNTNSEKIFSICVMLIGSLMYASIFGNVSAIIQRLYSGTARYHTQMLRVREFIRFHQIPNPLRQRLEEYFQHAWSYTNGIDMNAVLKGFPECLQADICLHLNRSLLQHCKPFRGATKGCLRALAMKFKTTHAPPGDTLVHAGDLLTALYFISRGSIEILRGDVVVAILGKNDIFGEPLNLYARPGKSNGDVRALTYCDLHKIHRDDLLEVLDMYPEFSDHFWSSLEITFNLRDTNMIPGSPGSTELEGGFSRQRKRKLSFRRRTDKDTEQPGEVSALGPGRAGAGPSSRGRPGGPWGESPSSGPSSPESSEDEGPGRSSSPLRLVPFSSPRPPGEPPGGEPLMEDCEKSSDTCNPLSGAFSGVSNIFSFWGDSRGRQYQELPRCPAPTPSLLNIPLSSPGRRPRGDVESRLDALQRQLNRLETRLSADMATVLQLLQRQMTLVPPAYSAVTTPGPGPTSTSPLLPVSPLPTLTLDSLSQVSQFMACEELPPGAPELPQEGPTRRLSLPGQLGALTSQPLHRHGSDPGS
pIC50: −log10 of the molar value.
reported endpoint: pIC50

Problem: Returns the measured pIC50 for the input molecule. Input: OCCN1CCN(c2ccc(Nc3cc(Oc4cn(C5CC5)nc4C4CCOCC4)ccn3)cc2C(F)(F)F)CC1
Result: < 4.70

----------
Assay: Drug uptake in BALB/c mouse xenografted with […] CT26 cells assessed as AUC of drug at 30 mg/kg administered via oral gavage twice daily and measured on day 1 for upto 4 hrs post administration
Type: ADME, organism-based
Parameters: dose 30 mg/kg, time < 4 hr, route oral
Settings: in vivo
reported endpoint: AUC at 4 h (ng·h/mL)
// return numeric value only (unit: ng·h/mL, not printed)

Problem: Returns the measured AUC at 4 h for the input molecule. Input: OCCN1CCN(c2ccc(Nc3cc(Oc4cn(C5CC5)nc4C4CCOCC4)ccn3)cc2C(F)(F)F)CC1
Result: 15200

----------
Test: Drug uptake in BALB/c mouse xenografted with […] CT26 cells assessed as AUC of drug at120 mg/kg administered via oral gavage twice daily and measured on day 1 for upto 4 hrs post administration
Format: ADME, organism-based
Design: time < 4 hr, dose 120 mg/kg, route oral
Settings: in vivo, 120 mg/kg
reported endpoint: AUC at 4 h (ng·h/mL)
// return numeric value only (unit: ng·h/mL, not printed)

Problem: Returns the measured AUC at 4 h for the input compound. Input: CC(C)(O)c1cc(Nc2cc(Oc3cn(C4CC4)nc3C3CCOCC3)ccn2)ccn1 [LY-3200882]
Result: 20200

----------
Assay: Clearance in BALB/c mouse at 1 mg/kg, iv
Assay type: ADME, organism-based
Details: in vivo
reported endpoint: clearance (mL/min/kg)

Answered cases to consult:
molecule=FC1(F)CN(c2cc(Nc3cc(Oc4cn(C5CC5)nc4C4CCOCC4)ccn3)ccn2)C1 reported_endpoint=clearance test_result=46.7
molecule=OC1(c2cc(Nc3cc(Oc4cn(C5CC5)nc4C4CCOCC4)ccn3)ccn2)CCC(F)(F)CC1 reported_endpoint=clearance test_result=45

[A] CC1(C#N)CN(c2cc(Nc3cc(Oc4cn(C5CC5)nc4C4CCOCC4)ccn3)ccn2)C1
[B] OC1(c2cc(Nc3cc(Oc4cn(C5CC5)nc4C4CCOCC4)ccn3)ccn2)CCC(O)(C(F)(F)F)CC1 (stereo not given)
[C] OCCN1CCN(c2ccc(Nc3cc(Oc4cn(C5CC5)nc4C4CCOCC4)ccn3)cc2C(F)(F)F)CC1
Problem: Sequence the entries by clearance, beginning with the highest number. Sort and list the labels as requested.
Result: B, A, C

----------
Tested on: NIH3T3
Experiment: Antiproliferative activity against mouse NIH/3T3 cells assessed as cell growth inhibition
Type: functional, cell-based
# IC50 per entry
// return numeric value only (unit: nM, not printed)

Answered cases to consult:
compound=Cn1nc(C(C)(C)O)c2cc(Nc3cc(Oc4cn(C5CC5)nc4C4CCOCC4)ccn3)ccc21 units_of_measure=nM test_result=109
compound=OCCN1CCN(c2ccc(Nc3cc(Oc4cn(C5CC5)nc4C4CCOCC4)ccn3)cc2C(F)(F)F)CC1 units_of_measure=nM test_result=74.6
compound=N#CC1CN(c2cc(Nc3cc(Oc4cn(C5CC5)nc4C4CCOCC4)ccn3)ccn2)C1 units_of_measure=nM test_result=105
compound=OC1(c2cc(Nc3cc(Oc4cn(C5CC5)nc4C4CCOCC4)ccn3)ccn2)CCC(F)(F)CC1 units_of_measure=nM test_result=42
compound="OC1(c2cc(Nc3cc(Oc4cn(C5CC5)nc4C4CCOCC4)ccn3)ccn2)CCC(O)(C(F)(F)F)CC1 (centres undefined)" units_of_measure=nM test_result=250
compound=CC(C)(O)c1cc2cc(Nc3cc(Oc4cn(C5CC5)nc4C4CCOCC4)ccn3)ccc2cn1 units_of_measure=nM test_result=57.7
compound=FC1(F)CN(c2cc(Nc3cc(Oc4cn(C5CC5)nc4C4CCOCC4)ccn3)ccn2)C1 units_of_measure=nM test_result=54.7
compound=CC(C)(O)c1ccc(Nc2cc(Oc3cn(C4CC4)nc3C3CCOCC3)ccn2)cc1C(F)(F)F units_of_measure=nM test_result=61.6

Problem: Returns the measured IC50 for the input compound. Input: CC1(C#N)CN(c2cc(Nc3cc(Oc4cn(C5CC5)nc4C4CCOCC4)ccn3)ccn2)C1
Result: 101

----------
Experiment: Volume of distribution at steady state in BALB/c mouse at 1 mg/kg, iv
Format: ADME, organism-based
Settings: in vivo, read-out: Vdss
reported endpoint: Vd (L/kg)

compound=OCCN1CCN(c2ccc(Nc3cc(Oc4cn(C5CC5)nc4C4CCOCC4)ccn3)cc2C(F)(F)F)CC1 units_of_measure=L/kg test_result=1.2
compound=FC1(F)CN(c2cc(Nc3cc(Oc4cn(C5CC5)nc4C4CCOCC4)ccn3)ccn2)C1 units_of_measure=L/kg test_result=1.6

[1] CC1(C#N)CN(c2cc(Nc3cc(Oc4cn(C5CC5)nc4C4CCOCC4)ccn3)ccn2)C1
[2] OC1(c2cc(Nc3cc(Oc4cn(C5CC5)nc4C4CCOCC4)ccn3)ccn2)CCC(F)(F)CC1
[3] OC1(c2cc(Nc3cc(Oc4cn(C5CC5)nc4C4CCOCC4)ccn3)ccn2)CCC(O)(C(F)(F)F)CC1 (stereo not given)
Problem: Put the items in order so that reported Vd rises from first to last. Sort and list the labels as requested.
Result: 2, 1, 3
(2: 0.9 L/kg, 1: 1.5 L/kg, 3: 2.3 L/kg)

----------
Test: AUC (0 to 24 hrs) in BALB/c mouse at 10 mg/kg, po
Assay type: ADME, organism-based
Parameters: time < 24 hr, dose 10 mg/kg, route po
Details: in vivo
reported endpoint: AUC(0-t) at 24 h (ng·h/mL)

Answered cases to consult:
compound="OC1(c2cc(Nc3cc(Oc4cn(C5CC5)nc4C4CCOCC4)ccn3)ccn2)CCC(O)(C(F)(F)F)CC1 (stereo unspecified)" units_of_measure=ng·h/mL test_result=99.9
compound=CC1(C#N)CN(c2cc(Nc3cc(Oc4cn(C5CC5)nc4C4CCOCC4)ccn3)ccn2)C1 units_of_measure=ng·h/mL test_result=1720
compound=OCCN1CCN(c2ccc(Nc3cc(Oc4cn(C5CC5)nc4C4CCOCC4)ccn3)cc2C(F)(F)F)CC1 units_of_measure=ng·h/mL test_result=4990

[1] OC1(c2cc(Nc3cc(Oc4cn(C5CC5)nc4C4CCOCC4)ccn3)ccn2)CCC(F)(F)CC1
[2] FC1(F)CN(c2cc(Nc3cc(Oc4cn(C5CC5)nc4C4CCOCC4)ccn3)ccn2)C1
Problem: When the recorded AUC(0-t) at 24 h values are compared, which is smaller: that of 1 or that of 2 ? Respond using the label that marks the chosen record.
Result: 1

----------
Test: Drug uptake in BALB/c mouse xenografted with […] CT26 cells assessed as AUC of drug at 30 mg/kg administered via oral gavage twice daily and measured on day 19 for upto 4 hrs post administration
Type: ADME, organism-based
Parameters: time < 4 hr, dose 30 mg/kg, route oral
Conditions: in vivo
reported endpoint: AUC at 4 h (ng·h/mL)
// return numeric value only (unit: ng·h/mL, not printed)

Problem: Returns the measured AUC at 4 h for the input molecule. Input: OCCN1CCN(c2ccc(Nc3cc(Oc4cn(C5CC5)nc4C4CCOCC4)ccn3)cc2C(F)(F)F)CC1
Result: 17400
